Data credit: patent US4732978A

compounds and their reported pIC50
Test system: synthesis of cyclooxygenase oxidation product PGE2
assay-text: Inhibition of synthesis of cyclooxygenase product PGE2 (rat polymorphonuclear leukocytes, procedure of Example 17)
Assay type: cell-based, rat (female Wistar)
cond: Leukocyte; rat PMN
pIC50: −log10 of the molar value.

Exercise: For the compound Clc1cccc(OCc2ccc3ccccc3n2)c1 [Example 3, 2-[(3-Chlorophenoxy)methyl]quinoline] , give its measured pIC50 value.
Key: < 4.00

Exercise: Please report pIC50 for the following compound: c1ccc2nc(COc3cccc4ccccc34)ccc2c1 [Example 10, 2-[(1-Naphthalenyloxy)methyl]quinoline]
Key: < 4.00

Exercise: Give pIC50 for Fc1cccc(OCc2ccc3ccccc3n2)c1 [Example 5, 2-[(3-Fluorophenoxy)methyl]quinoline]
Key: < 4.00

---

System: TPA-induced mouse ear edema
assay-text: 12-O-tetradecanoylphorbol acetate (TPA)-induced murine ear edema test, topical
Type: in vivo, mouse (Swiss Webster female)
cond: TPA 10 μg/ear (footnote b), * = <0.05
assay-metric: % Change from Control, TOPICAL, TPA (%)
Provide only the numeric value, understood in %.

Exercise: Under TPA-induced mouse ear edema, report % Change from Control, TOPICAL, TPA for Fc1cccc(OCc2ccc3ccccc3n2)c1 [Example 5, 2-[(3-Fluorophenoxy)methyl]quinoline]
Key: -47

Exercise: Give measured % Change from Control, TOPICAL, TPA for Fc1ccccc1OCc1ccc2ccccc2n1 [Example 2, 2-[(2-Fluorophenoxy)methyl]quinoline] (TPA-induced mouse ear edema).
Key: -42

Exercise: State % Change from Control, TOPICAL, TPA (TPA-induced mouse ear edema) of Brc1ccc(OCc2ccc3ccccc3n2)cc1 [Example 6, 2-[(4-Bromophenoxy)methyl]quinoline] .
Key: -22

Exercise: Provide the reported % Change from Control, TOPICAL, TPA (system: TPA-induced mouse ear edema) for Clc1ccc(OCc2ccc3ccccc3n2)cc1Cl [Example 7, 2-[(3,4-Dichlorophenoxy)methyl]quinoline]
Key: -21

New cases:
Exercise: State measured % Change from Control, TOPICAL, TPA of the molecule c1ccc2nc(COc3cccc4cccnc34)ccc2c1 [Example 15, 2-[(8-quinolinyloxy)-methyl]quinoline] with TPA-induced mouse ear edema.
Key: 53

Exercise: // fetch % Change from Control, TOPICAL, TPA; item: Brc1cccc(OCc2ccc3ccccc3n2)c1 [Example 1, 2-[(3-Bromophenoxy)methyl]quinoline] ; system: TPA-induced mouse ear edema
Key: -62

Exercise: # assay system TPA-induced mouse ear edema: give % Change from Control, TOPICAL, TPA of Clc1cccc(OCc2ccc3ccccc3n2)c1 [Example 3, 2-[(3-Chlorophenoxy)methyl]quinoline]
Key: -60

Exercise: Quote TPA-induced mouse ear edema % Change from Control, TOPICAL, TPA for entry FC(F)(F)c1cccc(OCc2ccc3ccccc3n2)c1 .
Key: 22

Exercise: Provide % Change from Control, TOPICAL, TPA, recorded with TPA-induced mouse ear edema, of Brc1ccccc1OCc1ccc2ccccc2n1 [Example 8, 2-[(2-Bromophenoxy)methyl]quinoline]
Key: -14

Exercise: Give % Change from Control, TOPICAL, TPA; test system TPA-induced mouse ear edema; molecule Clc1ccc(OCc2ccc3ccccc3n2)cc1 [Example 4, 2-[(4-Chlorophenoxy)methyl]quinoline]
Key: -45
